Measured GI50, listed per entry.
- System: SK-MEL-2
- protocol_summary: NCI tumour cell line growth inhibition, 48 h
Active and inactive are the calls of the source. Rule as the data show it: active = GI50 up to about 1.1 µM and inactive = higher.

Here's what some known entries look like.
>>> experimental_value("O=C(Nc1ccc(F)cc1)c1cc2ccc(O)cc2o/c1=N\\c1ccccc1F")
"29.3 µM (inactive)"
>>> experimental_value("CC1(C)CC(=O)C2=C(C1)NC1=C(C(=O)CC(C)(C)C1)C2c1ccc([N+](=O)[O-])cc1")
"> 100 µM (inactive)"
>>> experimental_value("CCN(CC)c1c(C)c(C(=O)OC)nn1-c1ccccc1")
"> 89.7 µM (inactive)"

Give the measured GI50 of O=C1Nc2ccccc2/C1=N/N1C(=O)/C(=C/c2ccccc2S)N=C1c1ccccc1 . 42.4 µM (inactive)

What value of measured GI50 is listed for COc1ccc2cc(CNCCCCCCNC(=O)Nc3cccc4ccccc34)ccc2c1 ? > 100 µM (inactive)

Source of measurements: ChEMBL document CHEMBL1201862
